Data provenance is patent US9708336B2.

Target: NDM-1 (Klebsiella pneumoniae, UniProt C7C422)
Sequence (C7C422 whole entry, looked up, species assumed): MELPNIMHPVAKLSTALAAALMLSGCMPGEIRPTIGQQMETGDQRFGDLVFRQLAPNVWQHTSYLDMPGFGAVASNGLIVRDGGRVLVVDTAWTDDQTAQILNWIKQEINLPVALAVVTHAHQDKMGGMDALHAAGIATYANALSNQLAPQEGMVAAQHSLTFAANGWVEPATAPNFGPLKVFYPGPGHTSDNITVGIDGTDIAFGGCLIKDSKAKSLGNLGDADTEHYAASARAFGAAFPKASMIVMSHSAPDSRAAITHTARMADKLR
Experiment: biochemical
Format: biochemical
Details: NDM-1 enzyme, CCF2-FA fluorescence assay; read-out: NDM-1 IC50
Assignment: determine reported pIC50 for the given molecules.
Answers are plain numbers, as −log10 of the molar value.

Consider the following illustrative entries.
Q: Look at this molecule and give its reported pIC50. Nc1nc2c(-c3ccc(C(F)(F)F)c(S(N)(=O)=O)c3-c3nnn[nH]3)cccc2s1
A: 9.42

Q: Item under review: NS(=O)(=O)c1cccc(-c2cccc3scnc23)c1-c1nnn[nH]1 . Reported pIC50?
A: 8.88

Q: Any idea what pIC50 was measured for CN1C2CCC1CC(NCc1ccc(-c3cccc(S(N)(=O)=O)c3-c3nnn[nH]3)cc1)C2 (stereo not drawn) ?
A: 8.13

Q: For the molecule shown here, NS(=O)(=O)c1cccc(-c2ccc(CNCCn3ccnn3)cc2)c1-c1nnn[nH]1 , give the reported pIC50.
A: 8.24

Quick request: pIC50 for each listed item, please.
1. NS(=O)(=O)c1cccc(-c2ccc(NCCO)nc2)c1-c1nn[nH]n1
2. NS(=O)(=O)c1cccc(-c2ccc(CNC3CC(F)(F)C3)cc2)c1-c1nnn[nH]1
3. N#CCCc1ccc(-c2ccnc3ccccc23)c(-c2nn[nH]n2)c1S(N)(=O)=O
4. NC(=O)Cc1ccc(-c2ccc(C(F)(F)F)c(S(N)(=O)=O)c2-c2nn[nH]n2)cc1
5. NS(=O)(=O)c1cccc(-c2snc3ncccc23)c1-c1nnn[nH]1

A:
1: 8.03; 2: 8.34; 3: 8.16; 4: 8.68; 5: 8.67

* * *

Target: VIM-1 (Pseudomonas aeruginosa (strain ATCC 15692 / DSM 22644 / CIP 104116 / JCM 14847 / LMG 12228 / 1C / PRS 101 / PAO1))
Test: Enzyme activity: determination of IC50, fluorescence assay with CCF2-FA substrate (VIM-1)
Format: biochemical
Conditions: VIM-1 enzyme, CCF2-FA fluorescence assay; read-out: VIM-1 IC50
Kindly supply the reported pIC50 values for the records listed here.
Numbers only, as −log10 of the molar value.

// below: answered compounds
Q: State the recorded pIC50 for this entry: NS(=O)(=O)c1c(CC2CCN(CC3CNC3)CC2)ccc(-c2ccc(C3CCNCC3)cc2)c1-c1nn[nH]n1
A: 8.69

Q: Can you share its pIC50? I mean this compound: NS(=O)(=O)c1c(Cc2ccccc2)ccc(-c2ccc(C3CCNCC3)cc2)c1-c1nnn[nH]1
A: 7.99

Q: Quick one: pIC50 of NS(=O)(=O)c1cccc(-c2ccc(CNC3CCN(C4CCCC4)CC3)cc2)c1-c1nnn[nH]1 ?
A: 6.19

Next:
Q: Would you kindly share the measured pIC50 for NS(=O)(=O)c1nccc(N2CCCC(Cc3cccnc3)C2)c1-c1nnn[nH]1 (stereo not shown) ?
A: 6.69

* * *

Field: pIC50. Provide a value for each of the compounds that follow.
Target: VIM-1 (Pseudomonas aeruginosa (strain ATCC 15692 / DSM 22644 / CIP 104116 / JCM 14847 / LMG 12228 / 1C / PRS 101 / PAO1))
Experiment: Enzyme activity: determination of IC50, fluorescence assay with CCF2-FA substrate (VIM-1)
Type: biochemical
Settings: VIM-1 enzyme, CCF2-FA substrate; read-out: VIM-1 IC50
One number for each entry, as −log10 of the molar value.

Q: Requested field: pIC50. Item: NS(=O)(=O)c1c(C(F)(F)F)ccc(-c2ccc(N3CCC(O)CC3)cc2)c1-c1nnn[nH]1
A: 8.94

Q: Name the recorded pIC50 for Nc1nc2c(-c3ccc(C(F)(F)F)c(S(N)(=O)=O)c3-c3nnn[nH]3)cccc2s1 .
A: 9.36

Q: Please report the recorded pIC50 for N#Cc1cccc2ncc(-c3cccc(S(N)(=O)=O)c3-c3nnn[nH]3)n12 .
A: 7.89

Q: Recorded pIC50 for NCCS(=O)(=O)c1ccc(-c2ccc(C(F)(F)F)c(S(N)(=O)=O)c2-c2nnn[nH]2)cc1 , please?
A: 8.80

Q: Could you tell me which pIC50 is on file for NCCNc1nc2c(-c3cccc(S(N)(=O)=O)c3-c3nn[nH]n3)cccc2s1 ?
A: 7.98

Q: Look up pIC50: NS(=O)(=O)c1c(C(F)(F)F)ccc(-c2cccc(N3CCCC(O)C3)c2)c1-c1nnn[nH]1 (stereo not drawn)
A: 8.56

Q: Which value of pIC50 has been reported for Cn1ccnc1CN1CCC(c2ccc(-c3cccc(S(N)(=O)=O)c3-c3nnn[nH]3)cc2)CC1 in the records?
A: 6.29

Q: Query: pIC50; subject: CC(CO)(CO)c1ccc(-c2ccc(C(F)(F)F)c(S(N)(=O)=O)c2-c2nnn[nH]2)cc1
A: 8.90

Take each entry in turn and give its pIC50.
1. Nc1nc2c(-c3ccc(CCCO)c(S(N)(=O)=O)c3-c3nn[nH]n3)cccc2s1
2. N=C(N)N1CCC(Cc2ccc(-c3ccc(C4CNC4)cc3)c(-c3nn[nH]n3)c2S(N)(=O)=O)CC1
3. NC(=O)C1CCN(c2ccc(C(F)(F)F)c(S(N)(=O)=O)c2-c2nnn[nH]2)CC1
4. N=C(N)N1CC(c2ccc(-c3ccc(CC4CCNCC4)c(S(N)(=O)=O)c3-c3nn[nH]n3)cc2)C1
5. Nc1nc(-c2ccc(-c3ccc(C(F)(F)F)c(S(N)(=O)=O)c3-c3nnn[nH]3)cc2)cs1
6. Nc1nc2cc(-c3ccc(C(F)(F)F)c(S(N)(=O)=O)c3-c3nnn[nH]3)ccc2s1
7. NC[C@H]1CC[C@H](Cc2ccc(-c3ccc(C4CCNC4)cc3)c(-c3nnn[nH]3)c2S(N)(=O)=O)CC1 (stereo partly drawn)
8. NS(=O)(=O)c1c(C(F)(F)F)ccc(N2C[C@H](O)C[C@@H](O)C2)c1-c1nnn[nH]1

A:
[8.54, 9.05, 9.10, 8.33, 9.16, 9.50, 8.93, 7.83]

I would be grateful if you could provide pIC50 for each of the following entries.
1. NS(=O)(=O)c1c(C(F)(F)F)ccc(-c2cccc3c2OCCN3)c1-c1nnn[nH]1
2. NS(=O)(=O)c1c(C[C@H]2CC[C@@H](N)CC2)ccc(-c2ccc(C3CCNC3)cc2)c1-c1nnn[nH]1 (stereo partly drawn)
3. N=C(N)NC[C@H]1CC[C@H](c2ccc(C(F)(F)F)c(S(N)(=O)=O)c2-c2nnn[nH]2)CC1
4. CC(N[C@H]1CC[C@H](c2ccc(C(F)(F)F)c(S(N)(=O)=O)c2-c2nnn[nH]2)CC1)C1CCNCC1 (stereo partly drawn)
5. Nc1ncc2c(-c3ccc(C(F)(F)F)c(S(N)(=O)=O)c3-c3nn[nH]n3)cccc2n1

A:
9.06
7.63
9.74
7.55
9.91
